Provide the reported growth inhibition of each item.
- assay-text: NCI Yeast Anticancer Drug Screen. Data for the bub3 strain (AID 167)
- assay-conditions: S. cerevisiae bub3 mutant strain, at 50.0 µM, stronger effect = higher value
This is part of a sample that, as a whole, favours compounds with a hit. Of some 79,000 tested, about 15% had one in any assay.
Numbers only, in %.

A selection of reference data follows.
Sample "CNC(=S)NC(=S)N(C)C" — what was its growth inhibition?
-35.2

// same read-out, input: "CCNC(=O)N(C)Cc1ccc(Cl)cc1"
-8.95

Now consider CC(C)(C)C(c1ccccc1)[N+](C)(C)C (stereo not drawn) .
15.2

And for COC(=O)C1C(=O)C2OC1C1OC(C)(C)OC21 (stereo not drawn) ?
1.7

For every item in the list below, what is its measured growth inhibition?
1. OCC1OCOC1C1OCOC1CO (stereo not drawn)
2. CCOc1ccc(N2C(=O)C(=O)C(C#N)(c3nc4ccccc4o3)C(=O)C2=O)cc1
3. C=CCN=C1NC(=O)C(CC(=O)Nc2ccc(C)cc2)S1 (stereo not drawn)
4. CNCCCCCNC
5. O=[N+]([O-])c1ccc2[nH]c3nc4ncccc4nc3c2c1

-2.55
-0.7
7.05
-0.2
0.25

Consider the following items and state reported growth inhibition for each.
1. NCCNC(=O)CCC(CN(CC(=O)O)CC(=O)O)N(CC(=O)O)CC(=O)O (stereo not drawn)
2. COc1ccc2c(c1OC)C1CCCCC1SCC2=O (stereo not drawn)
3. S=C(NCN1CCCCC1)NCN1CCCCC1
4. CCOc1ccc(OCC)c(NC(C)=O)c1
5. O=C1O[C@@H](c2ccccc2)C[C@@H]1CN1CCOCC1
6. CCOC(=O)Nc1ccccc1
7. Cc1cccc(C(C)C)c1NC(=O)C(=O)CC(=O)c1c(C)n([O-])c2ccccc2[n+]1=O

39
12.5
23.8
13.8
3.15
-6.8
-13.1

Hey, quick one: what's growth inhibition for each of these?
1. CC1(C)C(CBr)=[N+]([O-])C(C)(C)N1O
2. CCC1CN2C(=N1)c1ccccc1-c1cc([N+](=O)[O-])ccc12 (stereo not drawn)
3. CCN(CC)CCCNc1nc2ccccc2c2c1ncn2CC(C)C
4. CC(C)CCC[C@@H](C)[C@H]1CC[C@H]2[C@@H]3CC[C@H]4C[C@@H](CCC=C(c5cc(Cl)c(O)c(C(=O)O)c5)c5cc(Cl)c(O)c(C(=O)O)c5)CC[C@]4(C)[C@H]3CC[C@]12C
5. CCC(CC)C(=O)OCCCCC1CCCO1 (stereo not drawn)
6. N=C(N)C1CC1
7. CCCCCCCCCCCCCCCCCCNC(=O)Nc1ccc(OC)cc1OC

-12.9
54
13.2
24.5
12.2
2.4
2.8
